These entries and their values trace back to patent US20110143948A1.

As shown below, each of these substances has a reported ncRNA array expression, patient 25 value.
Test system: ncRNAs (SEQ ID NO 28-89)
Assay: ncRNA arrays of melanocytes, keratinocytes, normal skin, melanoma cell lines and patient samples
Set-up: species or system human
Settings: melanoma patient 25 sample compared to normal skin
Number only, please.

Sample answers from the record:
| SUBSTANCE | TARGET_OR_SYSTEM | ncRNA array expression, patient 25 |
| --- | --- | --- |
| SEQ ID NO 44 (AGCCAACTCACGCTTAGGGAGAACTCATACCGCCTAAATATAAAGGCAATTATATATATA; listed as DNA, chemistry not given here; listed as Homo sapiens) | ncRNAs (SEQ ID NO 28-89) | −1.979 |
| SEQ ID NO 34 (TTTTCTCTGCTTATTACCCTCCCTGTTTCCTCCTGGGCTGCCAACAACATATTATATTAC; listed as DNA, chemistry not given here; listed as Homo sapiens) | ncRNAs (SEQ ID NO 28-89) | 2.013 |

Field: next substance
May I ask what ncRNA array expression, patient 25 has been recorded for SEQ ID NO 71 (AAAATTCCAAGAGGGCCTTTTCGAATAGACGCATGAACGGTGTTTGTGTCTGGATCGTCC; listed as DNA, chemistry not given here; listed as Homo sapiens) ? 2.034
